Record form. Attribute: GI50. Fill in for each entry.
- Test system: SK-OV-3 ovarian
- procedure-summary: NCI tumour cell line growth inhibition, 48 h

query: Fill in GI50 for record NC(=O)c1ccc2c(-c3ccnc(NCCCO)n3)c(-c3ccc(F)cc3)nn2c1
result: > 24.2 µM

query: Fill in GI50 for record Cc1cc(-c2nnc(N)nc2-c2ccc(F)cc2)cc(Cl)n1
result: > 100 µM

query: Fill in GI50 for record CC(C)CNc1nc(-c2ccccc2)nc2ccccc12
result: 15.3 µM

query: Fill in GI50 for record O=S(=O)(c1ccc(N=C2NN=C(c3c[nH]c4ccccc34)CS2)cc1)N1CCOCC1
result: > 100 µM

query: Fill in GI50 for record O=C([O][Hg][CH2]C1COCC([CH2][Hg][O]C(=O)c2ccccc2)O1)c1ccccc1 (stereo not given)
result: 21.8 µM

###

- Test system: NCI-H460 lung
Answer with one of the outcomes given here: true (1) = active, false (0) = inactive

query: Outcome? O=C([O][Hg][CH2]C1COCC([CH2][Hg][O]C(=O)c2ccccc2)O1)c1ccccc1 (stereo not given)
result: false (0)

query: Outcome? COc1ccc(CNc2c3ccccc3nc3ccc(OC)cc23)cc1
result: false (0)

query: Outcome? Cc1cc(-c2nnc(N)nc2-c2ccc(F)cc2)cc(Cl)n1
result: false (0)

query: Outcome? C=CCN(CC=C)C(=O)c1cc(C)nc2c1c(=O)n(-c1ccccc1)c(=O)n2CC(O)CN1CCN(c2ncccn2)CC1 (stereo not given)
result: false (0)

query: Outcome? COc1cc2c(cc1OCCCCCCN1CCN(c3ncnc4ccccc34)CC1)N=CC1CCCN1C2=O (stereo not given)
result: true (1)

query: Outcome? O=C(CC12CC3CC(CC(C3)C1)C2)NCCOCCOCCOCCNC(=O)c1cc2c(o1)C(=O)c1ccccc1C2=O
result: true (1)

query: Outcome? COC(=O)c1c2c(c(C)[n+]([O-])c1C)C(=O)C=C(NCc1ccc(OC)cc1)C2=O
result: false (0)

query: Outcome? c1cc(OCCN2CCCCC2)ccc1CNc1ccc2nc(CCC3CCCCC3)[nH]c2c1
result: false (0)

query: Outcome? O=C(N/N=C/c1ccccc1Cl)c1ccccc1Nc1ccnc(C(F)(F)F)c1
result: false (0)

query: Outcome? COc1ccc2c(c1)OC1=C(C(=O)OC1)C2c1cc(OC)c(OC)c(OC)c1 (stereo not given)
result: true (1)

###

- Test system: OVCAR-8 ovarian
- procedure-summary: NCI tumour cell line growth inhibition, 48 h
Record form. Attribute: TGI. Fill in for each entry.

query: Send back OVCAR-8 ovarian TGI of Cc1cc(C)nc(NS(=O)(=O)c2ccc(Nc3c4ccc(Cl)cc4nc4c(C(=O)Nc5ccc(S(=O)(=O)N=C(N)N)cc5)cccc34)cc2)n1 only.
result: > 100 µM

query: Send back OVCAR-8 ovarian TGI of Cc1cc(N2CCCC2)nc(NC2CCCC(Nc3ccnc4cc(Cl)ccc34)C2)n1 (stereo not given) only.
result: 4.39 µM

query: Send back OVCAR-8 ovarian TGI of CN(/N=C/c1ccccn1)C1=NCCCCN1 only.
result: > 100 µM

query: Send back OVCAR-8 ovarian TGI of CCCC(C)C[C@@H](C)CC(C)/C=C(\C)c1oc(=O)c(C)c(O)c1C (stereo not given in full) (tested in a mixture with another compound) only.
result: 39.7 µM

query: Send back OVCAR-8 ovarian TGI of CC/C(=C(/CC)c1ccc(O)cc1)c1ccc([O-])cc1.CC/C(=C(/CC)c1ccc(O)cc1)c1ccc([O-])cc1.O=C([CH-]C(=O)c1ccccc1)c1ccccc1.O=C([CH-]C(=O)c1ccccc1)c1ccccc1.[Ti+4] only.
result: 46.3 µM

query: Send back OVCAR-8 ovarian TGI of COC1OC(C)C(O)CC1OS(=O)(=O)c1ccc(C)cc1 (stereo not given) only.
result: > 100 µM

query: Send back OVCAR-8 ovarian TGI of Cc1ccc(Nc2nc(N)nc3c2ncn3C2OC(CO)C(O)C2O)cc1 (stereo not given) only.
result: > 100 µM

query: Send back OVCAR-8 ovarian TGI of c1ccc2c(c1)-c1ccccc1C2N1CC2CCC(CC2)C1 only.
result: > 100 µM

query: Send back OVCAR-8 ovarian TGI of O=C1c2ccccc2-c2ccc(N=Nc3c(O)ccc4ccccc34)cc21 only.
result: > 100 µM

query: Send back OVCAR-8 ovarian TGI of N#Cc1c(Cl)/c(=C/O)c(=O)n2c1nc1ccccc12 only.
result: > 100 µM
